- assay_overview: viability loss with induced miR-34 in A549 – imaging, A549 dox-inducible miR-34, nuclei and caspase counts, primary screen (AID 1347080)
- recorded_conditions: A549 miR-34 inducible, Hoechst nuclei count, 48 h; measured here: relative caspase fold change +Dox/-Dox
Parameter: fold change. Scope: all listed entries.

{"molecule": "c1ccc2c(CCc3ccncc3)c[nH]c2c1", "fold change": 0.826}
{"molecule": "Cn1cc(/C=C/C(=O)N2CCc3[nH]nc(-c4ccccc4F)c3C2)cn1", "fold change": 2.04}
{"molecule": "CCCCCC(=O)/C=C/[C@H]1[C@H](O)CC(=O)[C@@H]1C/C=C\\CCCC(=O)O", "fold change": 1.18}
{"molecule": "O=c1cc(-c2ccc(O)cc2)oc2c(C3O[C@H](CO)[C@@H](O)[C@H](O)[C@H]3O)c(O)cc(O)c12 (stereo not given in full)", "fold change": 1.12}
{"molecule": "COCc1cc(O)c(O)c(O)c1-c1c(COC)cc(O)c(O)c1O", "fold change": 0.626}

###

- assay_overview: growth inhibition, single agent or in combination, cell-based, chromothripsis tumors, cisplatin or BGB combos (AID 1671449);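 also: cells exposed for 96 hours; 0% = vehicle DMSO and 100% = killing by high DMSO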
- recorded_conditions: LFS_MB_P medulloblastoma cells, measured here: combination with BGB IC40, at 0.05 µM
Label 1 when inhibition is at or above -20%; otherwise label -1.

{"compound": "CC1OC(CC(=O)O)CC2=C1C(=O)c1c(O)cccc1C2=O (stereo not given)", "answer_label": 1}
{"compound": "CCC1(O)C(=O)OCc2c1cc1n(c2=O)Cc2cc3cc(O)ccc3nc2-1 (stereo not given)", "answer_label": -1}
{"compound": "COc1ccccc1S(=O)(=O)Nc1ccc2c(c1)CN(C)C(=O)N2", "answer_label": -1}
{"compound": "Cn1cc(-c2cnn3c(N)c(Br)c([C@H]4CCCNC4)nc23)cn1", "answer_label": 1}

###

- assay_overview: drug combination growth inhibition, ovarian cancer – cell-based, oncology-focused library, rucaparib conditional, profiling panel (AID 1508598)
- recorded_conditions: patient-derived ovarian cancer cells, CellTiter-Glo viability, 144 h; at 0.000305 µM; OCI-P5x cells; without rucaparib; stronger effect = lower value
Parameter: viability. Scope: all listed entries.

{"compound": "Nc1nc(F)nc2c1ncn2[C@H]1O[C@H](CO)[C@@H](O)[C@@H]1O", "quantity_unit": "%", "viability": 108}
{"compound": "CC(C)NCCCn1c(Sc2cc3c(cc2I)OCO3)nc2c(N)ncnc21", "quantity_unit": "%", "viability": 94.7}
{"compound": "Nc1ncn([C@@H]2O[C@H](CO)[C@@H](O)[C@@H]2O)c(=O)n1", "quantity_unit": "%", "viability": 125}
{"compound": "CCOC(=O)NCCCC(=O)NCCc1ccccc1", "quantity_unit": "%", "viability": 94.2}
{"compound": "CO[C@H]1C[C@@H]2CC[C@@H](C)[C@@](O)(O2)C(=O)C(=O)N2CCCC[C@H]2C(=O)O[C@H]([C@@H](C)C[C@@H]2CC[C@@H](OCCO)[C@H](OC)C2)CC(=O)[C@H](C)/C=C(\\C)[C@H](O)[C@@H](OC)C(=O)[C@H](C)C[C@H](C)/C=C/C=C/C=C/1C", "quantity_unit": "%", "viability": 83.4}
{"compound": "CO[C@H]1C[C@@H]2CC[C@@H](C)[C@@](O)(O2)C(=O)C(=O)N2CCCC[C@H]2C(=O)O[C@H]([C@H](C)C[C@@H]2CC[C@@H](O)[C@H](OC)C2)CC(=O)[C@H](C)/C=C(\\C)[C@@H](O)[C@H](OC)C(=O)[C@H](C)C[C@H](C)/C=C/C=C/C=C/1C", "quantity_unit": "%", "viability": 75.2}
{"compound": "C=C1/C(=C/C=C2\\CCC[C@@]3(C)[C@H]2CC[C@H]3[C@H](C)/C=C/[C@@H](C)C(C)C)C[C@H](O)C[C@@H]1O", "quantity_unit": "%", "viability": 100}
{"compound": "c1ccc(Cn2c(-c3ccc(OC[C@H](C4CCNCC4)n4c(-c5ccccc5)nc5ccccc54)cc3)nc3ccccc32)cc1", "quantity_unit": "%", "viability": 96.7}
{"compound": "CCCCCOC(=O)Nc1nc(=O)n([C@@H]2O[C@H](C)[C@@H](O)C2O)cc1F (some centres undefined)", "quantity_unit": "%", "viability": 116}
{"compound": "CCNC(=O)c1noc(-c2cc(Cl)c(O)cc2O)c1-c1ccc(OC)cc1", "quantity_unit": "%", "viability": 98}
{"compound": "Cc1cc(NC(=O)c2cccc(NC(=O)/C=C/CN(C)C)c2)ccc1Nc1nccc(-c2cccnc2)n1", "quantity_unit": "%", "viability": 110}
{"compound": "O=C(NCC1(c2nc(-c3ccccc3)cs2)CCOCC1)c1cccc(-c2noc(C(F)(F)F)n2)c1", "quantity_unit": "%", "viability": 94.3}
{"compound": "CO[C@H]1C[C@H]2CC[C@@H](C)[C@@](O)(O2)C(=O)C(=O)N2CCCC[C@H]2C(=O)O[C@H]([C@H](C)C[C@@H]2CC[C@H](OP(C)(C)=O)[C@H](OC)C2)CC(=O)[C@H](C)/C=C(\\C)[C@@H](O)[C@@H](OC)C(=O)[C@H](C)C[C@H](C)/C=C/C=C/C=C/1C", "quantity_unit": "%", "viability": 65.5}
{"compound": "CC(C)C[C@H](NP(=O)(O)O[C@@H]1O[C@@H](C)[C@H](O)[C@@H](O)[C@H]1O)C(=O)N[C@@H](Cc1c[nH]c2ccccc12)C(=O)O", "quantity_unit": "%", "viability": 99.9}

Values were extracted from PubChem BioAssay.
